Across several studies, compounds have been characterized by their Ki on 5-hydroxytryptamine receptor 2C (Rattus norvegicus, UniProt P08909); a selection follows.
# Assayed system: 5-hydroxytryptamine receptor 2C (Rattus norvegicus, UniProt P08909)
# Sequence (P08909 whole entry): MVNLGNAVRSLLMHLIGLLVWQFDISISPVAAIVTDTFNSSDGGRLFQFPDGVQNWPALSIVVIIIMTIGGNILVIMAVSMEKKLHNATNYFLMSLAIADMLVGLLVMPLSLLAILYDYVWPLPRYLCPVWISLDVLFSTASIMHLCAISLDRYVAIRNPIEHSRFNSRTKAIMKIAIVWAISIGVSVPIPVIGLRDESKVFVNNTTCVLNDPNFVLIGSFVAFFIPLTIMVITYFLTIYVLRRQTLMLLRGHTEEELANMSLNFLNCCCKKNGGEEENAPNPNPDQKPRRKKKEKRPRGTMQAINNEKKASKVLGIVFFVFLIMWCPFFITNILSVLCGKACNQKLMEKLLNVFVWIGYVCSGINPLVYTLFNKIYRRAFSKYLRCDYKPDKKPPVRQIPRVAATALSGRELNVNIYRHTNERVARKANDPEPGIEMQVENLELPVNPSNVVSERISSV
Measure name: Ki (nM)

Example entries and their recorded answers appear below.
{"Compound": "CN1CCN(CC/C=C2/c3ccccc3Sc3ccc(S(=O)(=O)N(C)C)cc32)CC1", "Measure name": "Ki", "Unit info": "nM", "Recorded value": 1580}
{"Compound": "CNCCC=C1c2ccccc2CCc2ccccc21", "Measure name": "Ki", "Unit info": "nM", "Recorded value": 8.5}
{"Compound": "CN1CCN(C2=Cc3cc(Cl)ccc3C(=CC#N)c3ccccc32)CC1", "Measure name": "Ki", "Unit info": "nM", "Recorded value": 23}
{"Compound": "CN(C)CCCN1c2ccccc2CCc2ccccc21", "Measure name": "Ki", "Unit info": "nM", "Recorded value": 100}
{"Compound": "CNCCCN1c2ccccc2CCc2ccccc21", "Measure name": "Ki", "Unit info": "nM", "Recorded value": 244}

[1] NCC[C@H](Oc1ccc(C(F)(F)F)cc1)c1ccccc1
[2] O=C(c1ccc(F)cc1)C1CCN(CCn2c(=O)[nH]c3ccccc3c2=O)CC1
Form: Entry with minimum Ki (choose one): 1 / 2 Your answer should be the label attached to the chosen record. 2
(2: 30 nM, 1: 157 nM)
